# credit: patent US10028931B2

test system: Staphylococcus aureus strain UAMS-1; test: Antimicrobial susceptibility testing (MIC, broth microdilution); type: cell-based; details: Staphylococcus aureus, UAMS1, 18 h, S. aureus UAMS-1, Mueller Hinton broth, 37° C., read-out: MIC
METRIC: MIC

# example entries with known answers
In [3]: df
Out[3]:
                                   molecule  metric       result
0  CC(C)c1ccc(CCNc2c(NCc3cc4ccccc4o3)c(=O)c2=O)cc1 [MC-190088]     MIC  > 128 µg/mL
1  O=C(COc1ccccc1)NNC(=S)NC(=O)c1ccco1 [MC-190079]     MIC  > 128 µg/mL
2  Cc1cc(C)cc(OCC(=O)NNC(=S)NC(=O)C2CC2)c1 [ST5523339]     MIC     16 µg/mL
3  CCCCCCCC(=O)NC(=S)NNC(=O)COc1ccc(C(C)CC)cc1 (centres unmarked) [ST5528863]     MIC  > 128 µg/mL

Next up:
In: Fill in reported MIC for this entry: CC(C)c1ccc(OCC(=O)NNC(=S)NC(=O)c2ccc3ccccc3n2)cc1 [MC-190077]
Out: > 128 µg/mL

* * *

Readings of pIC50 for the listed compounds
Molecular target: RnpA (Staphylococcus aureus)
Sequence (P0A0H5 1-117): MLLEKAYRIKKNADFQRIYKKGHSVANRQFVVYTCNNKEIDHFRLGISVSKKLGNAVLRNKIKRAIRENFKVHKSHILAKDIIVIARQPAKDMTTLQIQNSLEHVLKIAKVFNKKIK
Experiment: RnpA mRNA degradation activity assay
Format: biochemical
Conditions: RnpA mRNA degradation, gel densitometry; read-out: RnpA IC50
Interpret pIC50 as the negative base-10 log of the concentration measured in mol/L.

>>> df
                                   compound  measured_number
0  CC(C)c1ccc(OCC(=O)NNC(=S)NC(=O)c2nc3ccccc3[nH]2)cc1 [MC-190052]             3.82
1  Cc1ccc(C(=O)NNC(=O)COc2ccc(C(C)C)cc2)o1 [MC-190041]             3.33
2  CC(C)c1ccc(OCC(=O)NNC(=S)NC(=O)c2cc3ccccc3[nH]2)cc1 [MC-190054]             4.30
3  CC(C)c1ccc(OCC(=O)NNC(=S)NC(=O)/C=C/c2ccco2)cc1 [MC-190045]             4.00
4  CCC(C)c1ccc(OCC(=O)NNC(=S)NC(=O)c2ccc(-c3ccccc3)cc2)cc1 (stereo not shown) [ST5525289]             4.40

In: Tell me its pIC50 on RnpA (Staphylococcus aureus): CC(C)c1ccc(OCC(=O)NNC(=O)c2cc3ccccc3[nH]2)cc1 [MC-190051]
Out: 4.35

In: Tell me its pIC50 on RnpA (Staphylococcus aureus): Cc1ccc(C(C)C)c(OCC(=O)NNC(=S)NC(=O)c2ccccc2OCCOc2ccccc2)c1 [ST5528960]
Out: 4.40

In: Tell me its pIC50 on RnpA (Staphylococcus aureus): Cc1cc(OCC(=O)NNC(=S)NC(=O)c2ccc(Br)o2)ccc1Cl [ST5522821]
Out: 4.46

In: Tell me its pIC50 on RnpA (Staphylococcus aureus): Cc1ccc(OCc2ccc(C(=O)NNC(=S)NCC(C)C)o2)c(C)c1 [ST5607269]
Out: 3.82
